Listed compounds paired with reported drug sensitivity score
# System: Bowes
# test-name: drug sensitivity score (DSS) (DSS (unitless, 0-50 scale)); higher = more sensitive (stronger viability inhibition); extreme values may be limits of the assay
# test-settings: 72 h; culture: 2D
recorded-metric: drug sensitivity score

# compound, test-value
measured = [
    ("CN(C)C(=O)c1cc2cnc(Nc3ccc(N4CCNCC4)cn3)nc2n1C1CCCC1", 0),
    ("CN(Cc1cnc2nc(N)nc(N)c2n1)c1ccc(C(=O)N[C@@H](CCC(=O)O)C(=O)O)cc1 [Methotrexate]", 27.7),
    ("O=C(c1ccc(F)c(F)c1Nc1ccc(I)cc1F)N1CC(O)([C@@H]2CCCCN2)C1", 0.3),
    ("COc1ccc(CCc2nc3cc(-c4c(C)noc4C)ccc3n2C[C@H](C)N2CCOCC2)cc1Cl", 3.6),
    ("Cc1cc(-c2nc(-c3ccc(OC(F)(F)F)cc3)no2)nn1Cc1ccnc(N2CCN(C3CC3)CC2)c1", 12.3),
    ("O=C(Nc1cccnc1)N1CCC(Cc2cccc(Oc3ccc(C(F)(F)F)cn3)c2)CC1", 3.8),
    ("C[C@H]1C[C@@H](n2c(Nc3ccc(OC(F)(F)F)cc3)nc3cc(CCC(=O)O)ccc32)CC(C)(C)C1", 0),
    ("O=C1Cc2cc(C(=O)NC3C[C@H]4CC[C@@H](C3)N4S(=O)(=O)CC3CCN(CCCC(F)(F)F)CC3)c(Cl)cc2N1 (stereo partly drawn)", 0.3),
]

###

Listed compounds paired with reported drug sensitivity score
# Test system: FM-MEL-6
# test-name: drug sensitivity score (DSS) (DSS (unitless, 0-50 scale)); higher = more sensitive (stronger viability inhibition); extreme values may be limits of the assay
# test-settings: 72 h; culture: 2D

# compound, drug sensitivity score
records = [
    ("CNc1nc(-c2ccc3c(N)n[nH]c3c2)cc(N2C[C@@H](C(=O)NC3CCCCC3)CC[C@H]2C)n1", 0),
    ("CCOc1cc2ncc(C#N)c(Nc3ccc(OCc4ccccn4)c(Cl)c3)c2cc1NC(=O)/C=C/CN(C)C", 0.3),
    ("O=S(=O)(c1cccc2c(O)nccc12)N1CCCNCC1 [Hydroxyfasudil]", 1.8),
    ("O=C(/C=C/c1cccnc1)NCCCCC1CCN(C(=O)c2ccccc2)CC1", 10.3),
]

###

# Tested on: FM-MEL-6
# test-name: drug sensitivity score (DSS) (DSS (unitless, 0-50 scale)); higher = more sensitive (stronger viability inhibition); extreme values may be limits of the assay
# test-settings: 72 h; culture: 2D
Tag: Fulfilled if measured drug sensitivity score is not below 3, Not fulfilled if it is.

# compound, assigned-category
measured = [
    ("O=C1NC(=O)[C@@H](c2cn3c4c(cccc24)CCC3)[C@@H]1c1c[nH]c2ccccc12 [Tivantinib]", "Fulfilled"),
    ("CC(C)C[C@@H](C(=O)N[C@H](C(=O)OC1CCCC1)c1ccccc1)[C@H](O)C(=O)NO [Tosedostat]", "Fulfilled"),
    ("C[C@]1(c2nc3c(C(N)=O)cccc3[nH]2)CCCN1 [Veliparib]", "Not fulfilled"),
    ("CC(C)n1nc(-c2ccc3oc(N)nc3c2)c2c(N)ncnc21 [Sapanisertib]", "Fulfilled"),
    ("C=C1C[C@@H]2CC[C@@]34C[C@H]5O[C@H]6[C@@H](O3)[C@H]3O[C@H](CC[C@@H]3O[C@H]6[C@H]5O4)CC(=O)C[C@@H]3[C@@H](OC)[C@@H](C[C@H](O)CN)O[C@H]3C[C@H]3O[C@@H](CC[C@@H]1O2)C[C@@H](C)C3=C [Eribulin]", "Fulfilled"),
    ("NS(=O)(=O)OC[C@@H]1C[C@@H](n2ccc3c(N[C@H]4CCc5ccccc54)ncnc32)C[C@@H]1O [Pevonedistat]", "Fulfilled"),
    ("CNC(=O)c1cc(Oc2ccc(NC(=O)Nc3ccc(Cl)c(C(F)(F)F)c3)cc2)ccn1 [Sorafenib]", "Not fulfilled"),
    ("C=CC(=O)Nc1cccc(Nc2nc(Nc3ccc(N4CCN(C(C)=O)CC4)cc3OC)ncc2C(F)(F)F)c1 [Rociletinib]", "Fulfilled"),
    ("CN(C)Cc1ccc(S(=O)(=O)n2ccc(/C=C/C(=O)NO)c2)cc1 [Resminostat]", "Fulfilled"),
    ("Cc1ccc(F)c(NC(=O)Nc2ccc(-c3cccc4[nH]nc(N)c34)cc2)c1 [Linifanib]", "Not fulfilled"),
    ("Cc1sc2c(c1C)C(c1ccc(Cl)cc1)=N[C@@H](CC(=O)NCCCCNC(=O)COc1cccc3c1C(=O)N(C1CCC(=O)NC1=O)C3=O)c1nnc(C)n1-2 (stereo not given in full) [dBET1]", "Fulfilled"),
    ("Cc1cc(C)c(CNC(=O)c2cc(-c3ccc(CN4CCOCC4)cc3)cc3c2cnn3C2CCCC2)c(=O)[nH]1 [EPZ-5687]", "Not fulfilled"),
    ("COc1cc2ncnc(Oc3cccc(NC(=O)Nc4cc(C(C)(C)C(F)(F)F)on4)c3)c2cc1OC", "Not fulfilled"),
    ("Cn1cc(C2=Nc3cc(NC(=O)C(N)C4CCCCC4)cc4c3C2=CNNC4=O)cn1 (stereo not given)", "Fulfilled"),
    ("CNC(=O)c1nn(C)c2c1C(C)(C)Cc1cnc(Nc3ccc(N4CCN(C)CC4)cc3)nc1-2 [Milciclib]", "Fulfilled"),
]
